Target: T1, EsCas13d, nuclease-dead (Eubacterium siraeum, UniProt B0MS50, R295A;H300A;R849A;H854A)
T1 sequence: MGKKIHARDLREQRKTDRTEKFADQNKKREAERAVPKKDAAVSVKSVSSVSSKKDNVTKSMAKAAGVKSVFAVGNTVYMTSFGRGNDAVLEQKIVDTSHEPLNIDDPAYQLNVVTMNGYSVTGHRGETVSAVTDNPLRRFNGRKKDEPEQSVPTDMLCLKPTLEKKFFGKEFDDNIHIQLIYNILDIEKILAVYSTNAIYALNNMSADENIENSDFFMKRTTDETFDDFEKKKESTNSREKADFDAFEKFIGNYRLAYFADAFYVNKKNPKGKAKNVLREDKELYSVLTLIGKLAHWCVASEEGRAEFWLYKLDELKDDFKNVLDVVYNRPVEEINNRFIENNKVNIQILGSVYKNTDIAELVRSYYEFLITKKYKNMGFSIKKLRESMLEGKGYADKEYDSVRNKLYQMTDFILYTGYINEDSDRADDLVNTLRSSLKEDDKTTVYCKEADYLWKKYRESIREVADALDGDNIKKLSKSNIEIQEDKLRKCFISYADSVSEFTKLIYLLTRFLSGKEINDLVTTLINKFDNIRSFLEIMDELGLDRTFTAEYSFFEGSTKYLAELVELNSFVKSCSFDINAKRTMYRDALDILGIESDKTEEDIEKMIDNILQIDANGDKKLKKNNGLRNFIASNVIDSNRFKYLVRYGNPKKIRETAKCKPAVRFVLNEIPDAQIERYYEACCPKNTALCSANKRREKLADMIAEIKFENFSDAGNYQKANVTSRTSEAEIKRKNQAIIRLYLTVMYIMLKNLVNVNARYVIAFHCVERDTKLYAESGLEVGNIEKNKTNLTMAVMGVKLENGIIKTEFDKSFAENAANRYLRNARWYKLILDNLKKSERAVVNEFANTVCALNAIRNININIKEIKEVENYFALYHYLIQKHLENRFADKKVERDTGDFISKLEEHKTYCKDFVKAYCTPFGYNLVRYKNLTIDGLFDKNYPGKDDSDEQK
Test: crRNA (strand 1, pre-loaded); Mg2+; 40 mM Tris-HCl pH 7.5, 150 mM NaCl, 6 mM MgCl2, 1 mM DTT, 0.1% Tween-20, 0.2 mg/ml BSA; 25 C; 10 min per concentration, then washed
Conditions: tags: His6-TwinStrep-SUMO cleaved; N-terminal SNAP kept (SNAP-Surface 488); label: 3' end held by stalled T7 RNA polymerase
Examples of binders with documented Kd follow.

[
  {
    "BINDER": "target 1 MT 5'PFS GGA 3'PFS AGU (mixed) RNA 1: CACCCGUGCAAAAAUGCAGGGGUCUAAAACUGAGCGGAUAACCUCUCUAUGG RNA 2: GGGAAUGGAUCCACAUCUACGAAUUCGGACCAUAGAGAGGUUAUCCGCUCAAGUAGAUCGGAAGAGCACACGU",
    "Kd": "0.022 µM"
  },
  {
    "BINDER": "target 2 MT 5'PFS GAG 3'PFS UAG (mixed) RNA 1: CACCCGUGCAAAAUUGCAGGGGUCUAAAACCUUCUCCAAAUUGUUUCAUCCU RNA 2: GGGAAUGGAUCCACAUCUACGAAUUCGAGAGGAUGAAACAAUUUGGAGAAGUAGAGAUCGGAAGAGCACACGU",
    "Kd": "0.0062 µM"
  },
  {
    "BINDER": "target 1 insA 3' of 21,insC 3' of 9 (mixed) RNA 1: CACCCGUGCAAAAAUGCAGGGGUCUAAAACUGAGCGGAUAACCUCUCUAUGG RNA 2: GGGAAUGGAUCCACAUCUACGAAUUCGUACCAAUAGAGAGGUUACUCCGCUCACCGAGAUCGGAAGAGCACACGU",
    "Kd": "0.0315 µM"
  },
  {
    "BINDER": "target 1 U3A,C7G (mixed) RNA 1: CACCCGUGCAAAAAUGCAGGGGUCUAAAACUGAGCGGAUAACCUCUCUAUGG RNA 2: GGGAAUGGAUCCACAUCUACGAAUUCGUACCAUAGAGAGGUUAUGCGCACACCGAGAUCGGAAGAGCACACGU",
    "Kd": "0.00664 µM"
  }
]
